- ASSAYED_TARGET: PTHR-delNt (Homo sapiens, UniProt Q03431, DEL24-181)
- Construct: expressed in transfected cells; host or cells: COS-7 cells, transient co-transfection; membranes prepared
- Sequence (Q03431 with tags, fused parts or gaps DEL24-181): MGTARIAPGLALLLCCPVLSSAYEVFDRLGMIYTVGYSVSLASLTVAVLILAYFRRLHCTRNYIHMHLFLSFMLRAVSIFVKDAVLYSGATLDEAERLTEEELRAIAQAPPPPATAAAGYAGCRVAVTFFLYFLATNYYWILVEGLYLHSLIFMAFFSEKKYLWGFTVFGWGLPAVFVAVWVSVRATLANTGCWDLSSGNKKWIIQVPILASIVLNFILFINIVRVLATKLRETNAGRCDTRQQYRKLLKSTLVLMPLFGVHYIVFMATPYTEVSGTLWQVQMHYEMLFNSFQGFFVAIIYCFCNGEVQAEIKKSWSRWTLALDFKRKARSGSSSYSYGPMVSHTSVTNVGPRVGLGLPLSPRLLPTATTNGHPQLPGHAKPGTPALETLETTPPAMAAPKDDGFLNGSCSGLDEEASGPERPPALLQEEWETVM
- ASSAY: Competition binding in COS-7 cell membranes with 125I-[Aib1,3,M]PTH(1-15)NH2 tracer
- CONDITION_SUMMARY: [Ala1,Arg19]hPTH(1-31)NH2 analogs; COS-7 membranes cotransfected with negative-dominant Gαs; read-out: PTHR-delNT (COS-7) IC50
- Procedure: PTHR-delNt is a derivative of the human PTHR that is deleted for most (Ala^24-Arg^181) of the amino-terminal extracellular domain (Shimizu, M., et al. (2001) Endocrinology 142:3068-3074). This PTHR construct was expressed in COS-7 cells via transient DNA transfection. […] Receptor binding—Binding to the wild-type human PTHR in intact HKRK-B7 cells and ROS 17/2.8 cells was assessed using ^125I-PTH(1-34) as a tracer radioligand, as described (Shimizu, M., (2001) Endocrinology 142:3068-3074). […]
Where no end group is shown, it is not given here.
MEASUREMENT_KIND: IC50 (µM)

Some solved cases for reference:
AVSEIQLMHNLGKHLNSMRRVEWLRKKEQDV-NH2 [Leu^28→Glu] :: 0.974
AVSEIQLMHNLGKHLNSMRRVEELRKKLQDV-NH2 [Trp^23→Glu] :: 0.434
AVSEIQLMHNLGKHLNSMRRVEWLREKLQDV-NH2 [Lys^26→Glu] :: 0.832
AVSEIQLMHNLGKHLNSMRRVEWERKKLQDV-NH2 [Leu^24→Glu] :: 1.04
AVSEIQLMHNLGKHLNSMRRVEWLEKKLQDV-NH2 [Arg^25→Glu] :: 1.63

A. AVSEIQLMHNLGKHLNSMRRVEWLRKELQDV-NH2 [Lys^27→Glu]
B. SVSEIQLMHNLGKHLNSMEEVEWLRKKLQDV [Arg^20→Glu]
Asked: // compare measured IC50, left A , right B , return larger Which one? Tell me its label.
Given back: A

Hey, just so you know, these numbers are from patent US8143374B2.
